# procedure_summary: Pharmacokinetic profile, LC-MS of peptide concentration in plasma
# Type: in vivo, mice
# condition_summary: mouse, plasma, sc, 5 mg/kg; administered subcutaneously into mice; read-out: time of maximal plasma concentration
Where a SMILES comes first, the peptide text is derived from it. Bridges are numbered along the chain shown (N, C = ends). [ ]: non-standard residue; d: D form. The star is where a group is joined. Stearoyl = CCCCCCCCCCCCCCCCCC(=O)*; Dab = NCC[C@H](N)C(=O)O

compound	Tmax [h]
CCCCCCCCCCCCCCCCCC(=O)N[C@@H](CCCNC(=N)N)C(=O)N[C@@H](CCCNC(=N)N)C(=O)N[C@@H](Cc1c[nH]cn1)C(=O)N[C@@H](CO)C(=O)N[C@@H]1CCCCNC(=O)[C@H](CC(=O)O)NC(=O)[C@@H]2CCCN2C(=O)[C@H](CCN)NC(=O)[C@H]2CCCN2C1=O [pCAP-724, str-RRHSkp(Dab)PD-Cyc] (Stearoyl-RRHS[dK][dP][Dab]PD; lactam 5-C)	2

###

# System: MIA PaCa-2 (pancreatic carcinoma) cells, p53R248W
# Type: cell-based
# condition_summary: 48 h
pIC50: −log10 of the molar value. Where a SMILES comes first, the peptide text is derived from it. Bridges are numbered along the chain shown (N, C = ends). [ ]: non-standard residue; d: D form. The star is where a group is joined. Stearoyl = CCCCCCCCCCCCCCCCCC(=O)*; Myristoyl = CCCCCCCCCCCCCC(=O)*; Dab = NCC[C@H](N)C(=O)O
Reported pIC50 by item:

compound	pIC50
CCCCCCCCCCCCCCCCCC(=O)N[C@@H](CCCNC(=N)N)C(=O)N[C@@H](CCCNC(=N)N)C(=O)N[C@@H](Cc1c[nH]cn1)C(=O)N[C@@H](CO)C(=O)N[C@@H](C(=O)N1CCC[C@@H]1C(=O)N[C@@H](CCN)C(=O)N1CCC[C@H]1C(=O)N[C@@H](CC(=O)O)C(N)=O)C(C)C [pCAP-708, str-RRHSvp(Dab)PD-NH2] (Stearoyl-RRHS[dV][dP][Dab]PD-NH2)	6.30
CCCCCCCCCCCCCCCCCC(=O)N[C@@H](CCCNC(=N)N)C(=O)N[C@@H](CCCNC(=N)N)C(=O)N[C@@H](Cc1c[nH]cn1)C(=O)N[C@@H](CO)C(=O)N[C@H]1CCCCNC(=O)[C@H](CC(=O)O)NC(=O)[C@@H]2CCCN2C(=O)[C@H](CCN)NC(=O)[C@@H]2CCCN2C1=O [pCAP-713, str-RRHSKP(Dab)PD-Cyc] (Stearoyl-RRHSKP[Dab]PD; lactam 5-C)	6.52
CCCCCCCCCCCCCCCCCC(=O)N[C@@H](CCCNC(=N)N)C(=O)N[C@@H](CCCNC(=N)N)C(=O)N[C@@H](Cc1c[nH]cn1)C(=O)N[C@@H](CO)C(=O)N[C@@H](C(=O)N1CCC[C@@H]1C(=O)N[C@@H](CCN)C(=O)N1CCC[C@H]1C(=O)N[C@@H](CC(=O)O)C(=O)NCC(=O)N[C@@H](CCC(=O)O)C(=O)N[C@@H](C)C(=O)O)C(C)C [pCAP-720, str-RRHSvp(Dab)PDGEA] (Stearoyl-RRHS[dV][dP][Dab]PDGEA-OH; C-terminus assumed)	6.52
CCCCCCCCCCCCCC(=O)N[C@@H](CCCNC(=N)N)C(=O)N[C@@H](CCCNC(=N)N)C(=O)N[C@@H](Cc1c[nH]cn1)C(=O)N[C@@H](CO)C(=O)N[C@@H](C(=O)N1CCC[C@H]1C(=O)N[C@@H](CCN)C(=O)N1CCC[C@H]1C(=O)N[C@@H](CC(=O)O)C(=O)O)C(C)C [pCAP-553, myr-RRHSvP(L-Dab)PD] (Myristoyl-RRHS[dV]P[Dab]PD-OH; C-terminus assumed)	5.92

Sourced from patent US20230127559A1
